# TARGET_OF_ASSAY: T1, HaloTag-ATRX ADD domain (163-292)
# T1 chain: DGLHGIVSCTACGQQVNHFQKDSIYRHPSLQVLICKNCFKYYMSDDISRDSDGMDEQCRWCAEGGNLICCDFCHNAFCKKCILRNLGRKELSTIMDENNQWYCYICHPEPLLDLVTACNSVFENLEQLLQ
# ASSAY_COMMENT: peptide microarray binding signal (635 nm), min-max normalized on array (fraction of array maximum); higher = stronger binding
# CONDITION_DESCRIPTION: peptide region: Unmod H3 variant; binder concentration: 500 nM
MEASUREMENT_KIND: peptide microarray binding signal
Lab note: record just the number, no unit beside it.

Some binders with known peptide microarray binding signal results, for comparison:
PFQRLVREIAQDF [Unmod H3 variant P F Q R L V R E I A Q D F]    0.0328
ARTKQTARKSTGG [Unmod H3 variant A R T K Q T A R K S T G G]    0.00991
ALQEASEAYLVGL [Unmod H3 variant A L Q E A S E A Y L V G L]    0.00233
ATGGVKKPHRYRP [Unmod H3 variant A T G G V K K P H R Y R P]    0.00938

[ask] Fill in: peptide microarray binding signal of ATKAARKSAPATG [Unmod H3 variant A T K A A R K S A P A T G] is ___
[reply] 0.0104

[ask] Fill in: peptide microarray binding signal of RVTIMPKDIQLAR [Unmod H3 variant R V T I M P K D I Q L A R] is ___
[reply] 0.0187

[ask] Fill in: peptide microarray binding signal of AIHAKRVTIMPKD [Unmod H3 variant A I H A K R V T I M P K D] is ___
[reply] 0.0132
